For each entry below, report its solubility at 4 h value.
- method.notes: Determination of compound aqueous solubility in M63 media
- Assay type: physicochemical
- conditions.used: in M63 media at 35 °C
- Protocol: Determination of Compound Aqueous Solubility. Compound stocks (100 mM in DMSO) were prepared from […] powder and then further diluted with DMSO to prepare 20 mM working solutions, which were diluted as needed […] in DMSO. 15 µL o f the DMSO solution was then d iluted to a final volume o f 1.0 mL in M63 media. Six solutions […] were prepared for each compound, each with a distinct concentration and 1.5% DMSO (v/v). […] spectra (300 to 700 nm) with the aid of an Epoch 2 microplate reader (B i o Te k ). […]
Kindly answer with a numeric value in µM, unit omitted.

Would you kindly share the measured solubility at 4 h for O=C1NC(=O)c2c(NCc3cc(Br)ccc3O)ccc(Cl)c21 [SB-16-124] ?
20

Would you kindly share the measured solubility at 4 h for O=C1NC(=O)c2c(NCc3cccc(F)c3O)cccc21 [EB-5-80] ?
100

Would you kindly share the measured solubility at 4 h for O=C1NC(=O)c2c(NCc3cc(Cl)ccc3O)cccc21 [KM-5-25] ?
80

Would you kindly share the measured solubility at 4 h for Cc1cc(Cl)cc(CNc2cccc3c2C(=O)NC3=O)c1O [SB-16-156] ?
40

Would you kindly share the measured solubility at 4 h for O=C1NC(=O)c2c(NCC3CCOCC3)cccc21 [SB-16-237] ?
100

Would you kindly share the measured solubility at 4 h for O=C1NC(=O)c2c(NCc3cc(Cl)ccc3O)ccc(Br)c21 [SB-16-51] ?
20

Would you kindly share the measured solubility at 4 h for O=C1NC(=O)c2c(NCc3cc(Br)ccc3O)cccc21 [KM-5-35] ?
60

Would you kindly share the measured solubility at 4 h for Cc1ccc(O)c(CNc2ccc(Br)c3c2C(=O)NC3=O)c1 [SB-16-122] ?
40

Would you kindly share the measured solubility at 4 h for O=C1NC(=O)c2c(NCc3cc(Cl)c(O)cc3O)cccc21 [SB-16-160] ?
80

Would you kindly share the measured solubility at 4 h for O=C1NC(=O)c2c(NCc3cc(Br)c(O)cc3O)cccc21 [SB-16-137] ?
80

====

- method.notes: Determination of compound aqueous solubility in M63 media
- Assay type: physicochemical
- conditions.used: M63 media with 1.5% DMSO, 35 °C, aqueous buffer, kinetic from dmso stock; in M63 media at 35 °C
Everything with solubility at 4 h lower than 60 µM is class 0; everything else, including exactly 60 µM, is class 1.

Quick check, solubility at 4 h >= 60 µM? O=C1NC(=O)c2c(NCc3cc(Cl)cc(O)c3O)cccc21
class 0

Quick check, solubility at 4 h >= 60 µM? CC(C)(C)c1ccc(O)c(CNc2cccc3c2C(=O)NC3=O)c1
class 0

Quick check, solubility at 4 h >= 60 µM? O=C1NC(=O)c2c(NCc3ccccc3O)cccc21
class 1

Quick check, solubility at 4 h >= 60 µM? O=C1NC(=O)c2c(NCc3cc(F)ccc3O)cccc21
class 1

Quick check, solubility at 4 h >= 60 µM? O=C1NC(=O)c2c(NCc3cccc4c3CCN4)cccc21
class 1

====

For each entry below, report its Intracell. Accum, A. baumannii 5075 value.
- Test system: A. baumannii 5075
- method.notes: Compound intracellular accumulation in A. baumannii 5075
- Type: cell-based
- conditions.used: ‡ treatment with 15 µM compound
Kindly answer with a numeric value in nmol/1012 CFU, unit omitted.

Would you kindly share the measured Intracell. Accum, A. baumannii 5075 for O=C1NC(=O)c2c(NCc3cc(Br)ccc3O)ccc(Cl)c21 [SB-16-124] ?
2626

Would you kindly share the measured Intracell. Accum, A. baumannii 5075 for Cc1cc(Cl)cc(CNc2cccc3c2C(=O)NC3=O)c1O [SB-16-156] ?
671

Would you kindly share the measured Intracell. Accum, A. baumannii 5075 for CC(C)(C)c1ccc(O)c(CNc2cccc3c2C(=O)NC3=O)c1 [SB-16-53] ?
327

Would you kindly share the measured Intracell. Accum, A. baumannii 5075 for O=C1NC(=O)c2c(NCc3cc(Cl)ccc3O)ccc(Br)c21 [SB-16-51] ?
2137

Would you kindly share the measured Intracell. Accum, A. baumannii 5075 for Cc1cc(Br)cc(CNc2cccc3c2C(=O)NC3=O)c1O [SB-16-106] ?
782
